Tested on: Male rats of SD strain
Assay: Serum lipid lowering action of structured lipids in high-fat food, two weeks (Example 6)
Type: in vivo, rat
Conditions: High-TG Food (20% fat) with 7.5% structured lipid, 2 weeks
From the text: Influence of arachidonic acid chemically synthesized in Example 2 on serum lipid lowering action of the constituting fatty acid was investigated in a high-fat foods. Male rats of SD strain of 5 weeks age were divided into eight groups each comprising five rats, acclimatized for one week with a standard solid feed and ingested for two weeks with the experimental food as shown in Table 7 and Table 8 (normal, high-TG, 7.5% PPP, 7.5% PAP, 7.5% PPA, 7.5% 8P8, 7.5% 8A8 and 7.5% 88A). […]
Marks after values point to notes of the source that are not given here.
Serum Total Cholesterol Concn listing for selected molecules.

{"molecule": "CCCCC/C=C\\C/C=C\\C/C=C\\C/C=C\\CCCC(=O)OC(COC(=O)CCCCCCCCCCCCCCC)COC(=O)CCCCCCCCCCCCCCC [PAP, 1,3-dipalmitoyl-2-arachidonoyl glyceride]", "Serum Total Cholesterol Concn": "91.7 ± 3.3^a μmol/dl"}
{"molecule": "CCCCCCCCCCCCCCCC(=O)OC(COC(=O)CCCCCCC)COC(=O)CCCCCCC [8P8, 1,3-capryloyl-2-palmitoyl-glyceride, reference compound]", "Serum Total Cholesterol Concn": "99.7 ± 4.2^b μmol/dl"}
{"molecule": "CCCCC/C=C\\C/C=C\\C/C=C\\C/C=C\\CCCC(=O)OCC(COC(=O)CCCCCCC)OC(=O)CCCCCCC (stereo not drawn) [88A]", "Serum Total Cholesterol Concn": "92.9 ± 2.9^a μmol/dl"}
{"molecule": "CCCCC/C=C\\C/C=C\\C/C=C\\C/C=C\\CCCC(=O)OCC(COC(=O)CCCCCCCCCCCCCCC)OC(=O)CCCCCCCCCCCCCCC (stereo not drawn)", "Serum Total Cholesterol Concn": "92.4 ± 4.9^a μmol/dl"}
{"molecule": "CCCCC/C=C\\C/C=C\\C/C=C\\C/C=C\\CCCC(=O)OC(COC(=O)CCCCCCC)COC(=O)CCCCCCC [8A8, 1,3-dioctanoyl-2-arachidonoyl glyceride]", "Serum Total Cholesterol Concn": "85.6 ± 2.5^b μmol/dl"}
{"molecule": "CCCCCCCCCCCCCCCC(=O)OCC(COC(=O)CCCCCCCCCCCCCCC)OC(=O)CCCCCCCCCCCCCCC [PPP, reference compound]", "Serum Total Cholesterol Concn": "104.3 ± 5.9^b μmol/dl"}
